MEASUREMENT NOTES: Evaluation in vivo (mouse), blood concentration (Table 4)
MEASUREMENT SETUP: po, treated orally, single 100 mg/kg dose
QUANTITY MEASURED: AUC (ng·h/mL)
The reply should be a number in ng·h/mL, with the unit left off.

C/C=C\C1=C(C(=O)OC(C)OC(=O)OCC)N2C(=O)[C@@H](NC(=O)/C(=N\O)c3csc(N)n3)[C@H]2SC1 (some centres unmarked) [Compound 89]: 74000

Attention now shifts to the item below.
Give AUC for C/C=C\C1=C(C(=O)OCc2oc(=O)oc2C)N2C(=O)[C@@H](NC(=O)/C(=N\O)c3csc(N)n3)[C@H]2SC1 [Compound 88]
44000

----------
MEASUREMENT NOTES: Mouse blood levels after oral administration (Table 2)
Type: in vivo
MEASUREMENT SETUP: mouse blood, 100 mg/kg, read-out: AUC
QUANTITY MEASURED: AUC (ng·h/mL)
The reply should be a number in ng·h/mL, with the unit left off.

CC1=C(C(=O)O)N2C(=O)[C@@H](NC(=O)[C@H](N)c3ccc(O)cc3)[C@H]2SC1 [Cefadroxil, reference compound]: 69000

Attention now shifts to the item below.
Give AUC for C=CC1=C(C(=O)O)N2C(=O)[C@@H](NC(=O)/C(=N\OCC(=O)O)c3csc(N)n3)[C@H]2SC1 [Cefixime, cefixime]
75000

----------
System: S. aureus Smith
MEASUREMENT NOTES: Evaluation in vivo (mouse), oral PD50 against S. aureus Smith
MEASUREMENT SETUP: Staphylococcus aureus, Table 5
QUANTITY MEASURED: ED50 (mg/kg)
The reply should be a number in mg/kg, with the unit left off.

Known results for compounds:
C/C=C\C1=C(C(=O)OC(C)OC(=O)C(C)(C)C)N2C(=O)C(NC(=O)/C(=N\O)c3csc(N)n3)[C@H]2SC1 (stereo partly shown) [Compound 91]: 2
C/C=C\C1=C(C(=O)OC(C)OC(=O)CC2CCCCC2)N2C(=O)C(NC(=O)/C(=N\O)c3csc(N)n3)[C@H]2SC1 (stereo partly shown) [Compound 92]: 2.9

Give ED50 for C/C=C\C1=C(C(=O)OC(C)OC(C)=O)N2C(=O)[C@@H](NC(=O)/C(=N\O)c3csc(N)n3)[C@H]2SC1 (stereo partly shown) [Compound 30]
2

Give ED50 for C/C=C\C1=C(C(=O)OC(C)OC(=O)OC2CCCCC2)N2C(=O)C(NC(=O)/C(=N\O)c3csc(N)n3)[C@H]2SC1 (stereo partly shown) [Compound 90]
3.2

----------
MEASUREMENT NOTES: Mouse blood levels after oral administration (Table 2)
Assay type: in vivo
MEASUREMENT SETUP: mouse, in vivo, 100 mg/kg
QUANTITY MEASURED: half-life (h)
The reply should be a number in h, with the unit left off.

Known results for molecules:
C/C=C\C1=C(C(=O)OC(C)OC(C)=O)N2C(=O)[C@@H](NC(=O)/C(=N\OC(C)=O)c3csc(N)n3)[C@H]2SC1 (stereo partly drawn): 0.8
C/C=C\C1=C(C(=O)OC(C)OC(C)=O)N2C(=O)[C@@H](NC(=O)/C(=N\O)c3csc(N)n3)[C@H]2SC1 (stereo partly drawn): 1.3

Attention now shifts to the item below.
Give half-life for N[C@@H](C(=O)N[C@@H]1C(=O)N2C(C(=O)O)=C(Cl)CS[C@H]12)c1ccccc1 [Cefaclor, reference compound]
1.2

----------
MEASUREMENT NOTES: Mouse blood levels after oral administration (Table 2)
Type: in vivo
MEASUREMENT SETUP: mouse blood, 100 mg/kg, read-out: T 1/2 (converted)
QUANTITY MEASURED: half-life (h)
The reply should be a number in h, with the unit left off.

CC1=C(C(=O)O)N2C(=O)[C@@H](NC(=O)[C@H](N)c3ccc(O)cc3)[C@H]2SC1 [Cefadroxil, reference compound]: 1.6

Attention now shifts to the item below.
Give half-life for C=CC1=C(C(=O)O)N2C(=O)[C@@H](NC(=O)/C(=N\OCC(=O)O)c3csc(N)n3)[C@H]2SC1 [Cefixime, cefixime]
1.6

----------
MEASUREMENT NOTES: Mouse blood levels after oral administration (Table 2)
Assay type: in vivo
MEASUREMENT SETUP: mouse, in vivo, 20 mg/kg
QUANTITY MEASURED: AUC (ng·h/mL)
The reply should be a number in ng·h/mL, with the unit left off.

C/C=C\C1=C(C(=O)OC(C)OC(C)=O)N2C(=O)[C@@H](NC(=O)/C(=N\O)c3csc(N)n3)[C@H]2SC1 (stereo partly drawn) [Compound 30]: 16000
N[C@@H](C(=O)N[C@@H]1C(=O)N2C(C(=O)O)=C(Cl)CS[C@H]12)c1ccccc1 [Cefaclor, reference compound]: 8900

Give AUC for C/C=C\C1=C(C(=O)OC(C)OC(C)=O)N2C(=O)[C@@H](NC(=O)/C(=N\OC(C)=O)c3csc(N)n3)[C@H]2SC1 (stereo partly drawn) [Compound 55]
9400

----------
MEASUREMENT NOTES: Mouse blood levels after oral administration (Table 2)
Type: in vivo
MEASUREMENT SETUP: mouse blood, 20 mg/kg, read-out: T 1/2 (converted)
QUANTITY MEASURED: half-life

C=CC1=C(C(=O)O)N2C(=O)[C@@H](NC(=O)/C(=N\OCC(=O)O)c3csc(N)n3)[C@H]2SC1: 1.5 h

Attention now shifts to the item below.
Give half-life for CC1=C(C(=O)O)N2C(=O)[C@@H](NC(=O)[C@H](N)c3ccc(O)cc3)[C@H]2SC1 [Cefadroxil, reference compound]
1.4 h

----------
MEASUREMENT NOTES: Evaluation in vivo (mouse), blood concentration (Table 4)
MEASUREMENT SETUP: po, treated orally, single 100 mg/kg dose
QUANTITY MEASURED: Cmax
Write down the value, and be sure its unit follows.

Give Cmax for C/C=C\C1=C(C(=O)OCc2oc(=O)oc2C)N2C(=O)[C@@H](NC(=O)/C(=N\O)c3csc(N)n3)[C@H]2SC1 [Compound 88]
16000 ng/mL

Give Cmax for C/C=C\C1=C(C(=O)OC(C)OC(=O)OCC)N2C(=O)[C@@H](NC(=O)/C(=N\O)c3csc(N)n3)[C@H]2SC1 (some centres unmarked) [Compound 89]
32000 ng/mL

----------
In this section we review reported half-life values for a set of compounds.
MEASUREMENT NOTES: Mouse blood levels after oral administration (Table 2)
Assay type: in vivo
MEASUREMENT SETUP: mouse, in vivo, 20 mg/kg
The reply should be a number in min, with the unit left off.

Known results for compounds:
C/C=C\C1=C(C(=O)OC(C)OC(C)=O)N2C(=O)[C@@H](NC(=O)/C(=N\OC(C)=O)c3csc(N)n3)[C@H]2SC1 (stereo partly drawn): 48
N[C@@H](C(=O)N[C@@H]1C(=O)N2C(C(=O)O)=C(Cl)CS[C@H]12)c1ccccc1 [Cefaclor, reference compound]: 54.6

Give half-life for C/C=C\C1=C(C(=O)OC(C)OC(C)=O)N2C(=O)[C@@H](NC(=O)/C(=N\O)c3csc(N)n3)[C@H]2SC1 (stereo partly drawn)
60
